# maps each entry to its viability, T/C
System: K98450-129-R-PDC complex spheroid growth, percent test/control
protocol-details: Anticancer human tumor K98450-129-R-PDC patient-derived colon adenocarcinoma cell line growth inhibition [RAS]
assay-context: second compound 0.00949 µM; first compound 0.316 µM; hits give low values
quantity-name: viability, T/C (%)

compound | system-name | quantity-name | result-unit | measured-result
O=C(c1ccc(F)c(F)c1Nc1ccc(I)cc1F)N1CC(O)([C@@H]2CCCCN2)C1 + CCn1c(-c2cccnc2C(C)OC)c2c3cc(ccc31)N1CCOC(CC(NC(=O)C(C(C)C)N(C)C(=O)C3(F)CCN(C(=O)C#CC(C)(C)N(C)C)CC3)C(=O)N3CCCC(N3)C(=O)OCC(C)(C)C2)C1 | K98450-129-R-PDC complex spheroid growth, percent test/control | viability, T/C | % | 5.98
CCN1CCN(Cc2ccc(Nc3ncc(F)c(-c4cc(F)c5nc(C)n(C(C)C)c5c4)n3)nc2)CC1 + CCn1c(-c2cccnc2C(C)OC)c2c3cc(ccc31)N1CCOC(CC(NC(=O)C(C(C)C)N(C)C(=O)C3(F)CCN(C(=O)C#CC(C)(C)N(C)C)CC3)C(=O)N3CCCC(N3)C(=O)OCC(C)(C)C2)C1 | K98450-129-R-PDC complex spheroid growth, percent test/control | viability, T/C | % | 36.6
C[C@@H](NC(=O)c1ncnc(N)c1Cl)c1ncc(C(=O)Nc2cc(C(F)(F)F)c(Cl)cn2)s1 + CCn1c(-c2cccnc2C(C)OC)c2c3cc(ccc31)N1CCOC(CC(NC(=O)C(C(C)C)N(C)C(=O)C3(F)CCN(C(=O)C#CC(C)(C)N(C)C)CC3)C(=O)N3CCCC(N3)C(=O)OCC(C)(C)C2)C1 | K98450-129-R-PDC complex spheroid growth, percent test/control | viability, T/C | % | 54.5
Nc1ccn(C2OC(CO)C(O)C2(F)F)c(=O)n1 (stereo not given) + CCn1c(-c2cc(N3CCN(C)CC3)cnc2C(C)OC)c2c3cc(ccc31)-c1csc(n1)CC(NC(=O)C1CC1C)C(=O)N1CCCC(N1)C(=O)OCC(C)(C)C2 | K98450-129-R-PDC complex spheroid growth, percent test/control | viability, T/C | % | 30
CC(=O)OC12COC1CC(O)C1(C)C(=O)C(O)C3=C(C)C(OC(=O)C(O)C(NC(=O)OC(C)(C)C)c4ccccc4)CC(O)(C(OC(=O)c4ccccc4)C21)C3(C)C (stereo not given) + CCn1c(-c2cccnc2C(C)OC)c2c3cc(ccc31)N1CCOC(CC(NC(=O)C(C(C)C)N(C)C(=O)C3(F)CCN(C(=O)C#CC(C)(C)N(C)C)CC3)C(=O)N3CCCC(N3)C(=O)OCC(C)(C)C2)C1 | K98450-129-R-PDC complex spheroid growth, percent test/control | viability, T/C | % | 19.9

---

System: K98450-129-R-PDC complex spheroid growth, percent test/control
protocol-details: Anticancer human tumor K98450-129-R-PDC cell line growth inhibition [RAS];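 note: luminescence used as a proxy for viable cell amount; spheroids exposed to agents for seven days before the viability readout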
assay-context: second compound 0.1 µM; first compound 0.00316 µM; hits give low values

compound | viability, T/C (%)
CC(C)n1nc(-c2ccc3oc(N)nc3c2)c2c(N)ncnc21 + C#Cc1c(F)ccc2cc(O)cc(-c3ncc4c(N5CC6CCC(C5)N6)nc(OCC56CCCN5CC(F)C6)nc4c3F)c12 | 102
C=CC(=O)Nc1cc(Nc2nccc(-c3cn(C)c4ccccc34)n2)c(OC)cc1N(C)CCN(C)C + C=CC(=O)N1CCN(c2nc(OCC3CCCN3C)nc3c(F)c(-c4nc(N)cc(C)c4C(F)(F)F)c(Cl)cc23)C(C)C1 | 56.3
Nc1ccn(C2OC(CO)C(O)C2(F)F)c(=O)n1 (stereo unspecified) + C=CC(=O)N1CCN(c2nc(OCC3CCCN3C)nc3c(F)c(-c4nc(N)cc(C)c4C(F)(F)F)c(Cl)cc23)C(C)C1 | 57.5
C=CC(=O)N1CCN(c2nc(OCC3CCCN3C)nc3c(F)c(-c4nc(N)cc(C)c4C(F)(F)F)c(Cl)cc23)C(C)C1 (stereo unspecified) + C#Cc1c(F)ccc2cc(O)cc(-c3ncc4c(N5CC6CCC(C5)N6)nc(OCC56CCCN5CC(F)C6)nc4c3F)c12 | 95.4
CCN1CCN(Cc2ccc(Nc3ncc(F)c(-c4cc(F)c5nc(C)n(C(C)C)c5c4)n3)nc2)CC1 + C#Cc1c(F)ccc2cc(O)cc(-c3ncc4c(N5CC6CCC(C5)N6)nc(OCC56CCCN5CC(F)C6)nc4c3F)c12 | 109
Nc1ccn(C2OC(CO)C(O)C2(F)F)c(=O)n1 (stereo unspecified) + C#Cc1c(F)ccc2cc(O)cc(-c3ncc4c(N5CC6CCC(C5)N6)nc(OCC56CCCN5CC(F)C6)nc4c3F)c12 | 115
